protocol text: clinical
condition: human, in vivo
metric: Vd (L)
# output: bare number, implied unit L

query: What value of Vd has been recorded for this entry: CN[C@@H]1[C@@H](O)[C@@H](O[C@@H]2[C@@H](O)[C@H](O[C@H]3OC(CN)=CC[C@H]3N)[C@@H](N)C[C@H]2N)OC[C@]1(C)O
result: 11.8
